Data origin, for the record: paper PMC10397247

# interaction score values compiled below
system_name: T1, P1mSN
T1 chain: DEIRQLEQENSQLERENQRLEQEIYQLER
experiment: two-hybrid library CCNG1;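 note: natural log of median RNA to DNA barcode read ratio; higher means stronger binding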
# output: bare number, no unit

Some entries whose results are on file:
DKNQQLKQEIQELEQKIQELKWKNQELKQ [4H3632-bN]: -0.649
DKIAQLKQENAELEQKNAELKWEIAQLEQ [4H2745-bA]: -0.547
DKNEQLKEKISELKEKIEQLKEENQSLEY [P12mSN]: -1.32

Item DEIRQLEQENSQLERENQRLEQEIYQLER [P1mSN] has what recorded interaction score?
-1.23

Same for DKNSQLKEENSQLEEKIEQLKEKIQELKY [P10mSN]
0.0169

Same for DENQSLEQEISQLEQEIQQLEQKNSELKY [P11mSN]
-0.413
